Target: Cytochrome P450 2C19 (Homo sapiens) (UniProt P33261)
Sequence (P33261 whole entry, looked up): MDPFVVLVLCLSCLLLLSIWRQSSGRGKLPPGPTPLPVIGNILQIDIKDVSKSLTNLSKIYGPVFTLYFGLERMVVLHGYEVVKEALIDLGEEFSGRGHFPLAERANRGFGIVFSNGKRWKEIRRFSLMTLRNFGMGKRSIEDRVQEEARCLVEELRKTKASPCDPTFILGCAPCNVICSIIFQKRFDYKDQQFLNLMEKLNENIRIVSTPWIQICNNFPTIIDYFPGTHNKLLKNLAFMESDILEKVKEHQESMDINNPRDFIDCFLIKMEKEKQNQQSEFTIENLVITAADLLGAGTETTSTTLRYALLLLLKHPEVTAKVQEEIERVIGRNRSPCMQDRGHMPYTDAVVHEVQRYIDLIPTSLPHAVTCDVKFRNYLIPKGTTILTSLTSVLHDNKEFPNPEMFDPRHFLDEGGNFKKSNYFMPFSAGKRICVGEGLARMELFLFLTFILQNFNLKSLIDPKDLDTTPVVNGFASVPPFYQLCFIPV
Experiment: blockers of cytochrome P450 2C19 activity – biochemical, luminescence, ADME assay, primary screen (AID 778);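 note: plate controls were negative control wells for no effect and 2.5 mM tranylcypromine positive control for full effect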
Settings: CYP2C19 Supersomes, luciferin-H EGE luminescence, 30 min; at 5 µM; active compounds read high
The campaign covered roughly 96,000 compounds. About 20,000 (21%) were called active. The list is a sample of the results.
QUANTITY NAME: inhibition (%)
Give bare numbers, in %.

[
  {
    "COMPOUND": "CC1CCc2c(c3ccccc3[nH]c2=O)O1 (configuration not stated)",
    "inhibition (%)": 25.5
  }
]

Dear colleague, could you please provide inhibition for the compounds listed below?
1. CCN1CCN(c2ccc([N+](=O)[O-])cc2C(=O)c2ccc(Cl)cc2)CC1
2. CCCC(C(=O)N1CCOCC1)N1C(=O)C2C3C=CC(C3)C2C1=O (configuration not stated)
3. COc1cccc2sc(Nc3nc(C)c(C(C)=O)s3)nc12

1. 5.8
2. -3.8
3. 12.5

Dear colleague, could you please provide inhibition for the compounds listed below?
1. OC(COCCC12CC3CC(CC(C3)C1)C2)CN1CCCCC1 (configuration not stated)
2. COCCCNC(=O)C1CC(=O)N(CCc2ccccc2)C1 (configuration not stated)
3. CC(C)(O)C#Cc1ccc(C(=O)N2CCC(C(N)=O)(N3CCCCC3)CC2)cc1

1. 35.1
2. -3.4
3. 14.8

====

Target: Cytochrome P450 2C19 (Homo sapiens)
Test: blockers of cytochrome P450 2C19 activity – biochemical, luminescence, ADME assay, primary screen (AID 778)
Settings: CYP2C19 Supersomes, luciferin-H EGE luminescence, 30 min; at 5 µM
Among all 96,000 compounds or so, about 20,000 (21%) were called active.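 How the source made its calls: active means CYP2C19 inhibition above a set limit at 5 µM in the primary screen (cut at about 50% in these data); inactive means the rest.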 The list is a sample of the results.
Entry note: the call must match one of active, inactive

Some solved cases for reference:
[
  {
    "COMPOUND": "CCOCC(=O)Nc1cc(OC)c(Cl)cc1OC",
    "MEASURED ON": "Cytochrome P450 2C19 (Homo sapiens)",
    "ASSIGNED CATEGORY": "inactive"
  },
  {
    "COMPOUND": "CCOC(=O)CCc1c(C)c(C#N)c2[nH]c3ccccc3n2c1=O",
    "MEASURED ON": "Cytochrome P450 2C19 (Homo sapiens)",
    "ASSIGNED CATEGORY": "inactive"
  },
  {
    "COMPOUND": "COc1cccc(OCC(O)CN2CCN(CCO)CC2)c1 (configuration not stated)",
    "MEASURED ON": "Cytochrome P450 2C19 (Homo sapiens)",
    "ASSIGNED CATEGORY": "inactive"
  },
  {
    "COMPOUND": "Cc1cccc(C)c1NC(=O)c1ccc(CN2CCc3ccccc3C2)cc1",
    "MEASURED ON": "Cytochrome P450 2C19 (Homo sapiens)",
    "ASSIGNED CATEGORY": "inactive"
  },
  {
    "COMPOUND": "CCOC(=O)C1C(=O)OC2(CCCC2)C1C(=O)OCC (configuration not stated)",
    "MEASURED ON": "Cytochrome P450 2C19 (Homo sapiens)",
    "ASSIGNED CATEGORY": "inactive"
  }
]

What did this assay record as the result for `Cc1ccoc1C(=O)Nc1cccc(Oc2ccccc2)c1` ? inactive

Now consider `O=C(/C=C/c1ccccc1)N/C(=C/c1ccccc1)C(=O)Nc1ccccc1O` . inactive

Now consider `Cc1cc(C(F)(F)F)nn1CC(=O)N1CCCC1` . inactive

Now consider `CC1(C)Cc2c(C#N)c(SCc3nc4ccccc4[nH]3)nc(N3CCOCC3)c2CO1` . active

Now consider COc1cc(C2C(C(=O)OCCC#N)=C(C)NC3=C2S(=O)(=O)c2ccccc23)cc(OC)c1OC (configuration not stated) . inactive

Now consider `Cc1onc(-c2ccccc2)c1C(=O)Nc1ccccc1C#N` . active

Now consider CC/S(CC1CC1(Cl)Cl)=N\S(=O)(=O)c1ccc(C)cc1 (configuration not stated) . inactive

Now consider `COc1ccc(-n2ncc3c(N4CCc5ccccc54)ncnc32)cc1` . inactive

Now consider O=C(CC1Oc2ccccc2NC1=O)NCCCN1CCN(Cc2ccccc2)CC1 (configuration not stated) . inactive

Now consider `O=C(c1ccc2c(c1)N(Cc1ccc(F)cc1)C(=O)CS2)N1CCOCC1` . inactive

Now consider `O=C(Nc1ccccc1[N+](=O)[O-])C1C(c2ccccc2)=C1c1ccccc1` . inactive

====

Target: Cytochrome P450 2C19 (Homo sapiens)
Assay: blockers of cytochrome P450 2C19 activity – biochemical, luminescence, ADME assay, primary screen (AID 778);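 note: plate controls were negative control wells for no effect and 2.5 mM tranylcypromine positive control for full effect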
Details: CYP2C19 Supersomes, luciferin-H EGE luminescence, 30 min; at 5 µM; active compounds read high
In all, about 96,000 compounds went through this assay and about 20,000 (21%) were called active. A selection follows.
Give measured inhibition for each item. Keep answers brief.
Give bare numbers, in %.

Some compounds with recorded inhibition:
[
  {
    "COMPOUND": "Cc1ccc(CNC(=O)C2CC(=O)N(C3CCCCCCC3)C2)cc1 (centres undefined)",
    "inhibition, %": -2.5
  },
  {
    "COMPOUND": "Cc1cccc(C)c1N1CCN(S(=O)(=O)N2CCOCC2)CC1",
    "inhibition, %": 22.7
  },
  {
    "COMPOUND": "O=S(=O)(N1CCOCC1)N1CCN(c2ccccc2F)CC1",
    "inhibition, %": 61.1
  }
]

Now turn to the next compound.
For Cytochrome P450 2C19 (Homo sapiens), provide inhibition of `N#Cc1ccc(CSc2nnc(-c3ccccn3)n2-c2ccc(Cl)cc2)cc1` please. 18.3

====

Molecular target: Cytochrome P450 2C19 (Homo sapiens) (UniProt P33261)
Experiment: blockers of cytochrome P450 2C19 activity – biochemical, luminescence, ADME assay, primary screen (AID 778);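 note: plate controls were negative control wells for no effect and 2.5 mM tranylcypromine positive control for full effect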
Conditions: CYP2C19 Supersomes, luciferin-H EGE luminescence, 30 min; at 5 µM; active compounds read high
Hit rate of the full screen: of about 96,000 compounds, about 20,000 (21%) were called active. A selection follows.
QUANTITY NAME: inhibition (%)
Numbers only, in %.

[
  {
    "SMILES NOTATION": "COc1ccc(N(CC(=O)NC(C)(C)C)C(=O)c2ccco2)cc1",
    "inhibition / %": -6.7
  },
  {
    "SMILES NOTATION": "Cc1c(CCO)c(=O)[nH]n1C(=O)c1c(F)cccc1F",
    "inhibition / %": 10
  },
  {
    "SMILES NOTATION": "CCOC(=O)c1c(NC(=O)CCl)sc(C(=O)N(CC)CC)c1C",
    "inhibition / %": 56.1
  },
  {
    "SMILES NOTATION": "c1ccc(CSc2nnc(-c3ccco3)c(-c3ccco3)n2)cc1",
    "inhibition / %": 44.4
  }
]

Now turn to the next molecule.
Name the reported inhibition value associated with the molecule `O=C(CN1CCN(C(=O)c2cccc(F)c2)CC1)Nc1ccccc1F` 42.8

====

Target: Cytochrome P450 2C19 (Homo sapiens) (UniProt P33261)
Assay: blockers of cytochrome P450 2C19 activity – biochemical, luminescence, ADME assay, primary screen (AID 778);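 note: plate controls were negative control wells for no effect and 2.5 mM tranylcypromine positive control for full effect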
Conditions: CYP2C19 Supersomes, luciferin-H EGE luminescence, 30 min; at 5 µM; active compounds read high
About 20,000 (21%) of roughly 96,000 compounds were called active. The list is a sample of the results.
QUANTITY NAME: inhibition (%)
One number for each entry, in %.

Some molecules with recorded inhibition:
[
  {
    "MOLECULE": "O=C(O)C1CCN(C(=O)OCc2ccccc2)CC1",
    "VALUE MEASURED": 31.9
  },
  {
    "MOLECULE": "CCCn1c(C(O)c2ccc(OCC)cc2)nc2ccccc21 (configuration not stated)",
    "VALUE MEASURED": 90.6
  },
  {
    "MOLECULE": "CCOc1ccc(C(O)Cn2c(=N)n(CCN3CCCCC3)c3ccccc32)cc1 (configuration not stated)",
    "VALUE MEASURED": 9.8
  },
  {
    "MOLECULE": "CCN(CC)S(=O)(=O)c1ccc(N(C)Cc2ccc(C(F)(F)F)cc2)nc1",
    "VALUE MEASURED": 85.1
  }
]

Dear colleague, could you please provide inhibition for the molecules listed below?
1. CCn1c(SCC(=O)c2ccc(Cl)s2)nnc1-c1cccs1
2. COc1cc(OC)cc(C(=O)NC2CCN(C(=O)N3c4ccccc4Sc4ccccc43)CC2)c1
3. C/C(=N/NC(=O)c1cc(Cl)ccc1O)C12CC3CC(CC(C3)C1)C2
4. Cn1c(SCC(=O)c2cccs2)nnc1-c1ccco1

[94.2, 5.8, 0.2, 42.3]

Dear colleague, could you please provide inhibition for the molecules listed below?
1. C#CCSc1nnc(-c2sc3ccccc3c2Cl)o1
2. COc1ccc(N2CCN(CCNC(=O)c3nnc(Cc4c(F)cccc4Cl)o3)CC2)cc1
3. CCC1CCCCN1CCNC(=O)c1[nH]c(C)c(C(C)=O)c1C (configuration not stated)
4. CCN1CCC(=NNC(=O)c2ccc(C)c([N+](=O)[O-])c2)CC1
5. O=c1cc(CSc2ccccn2)nc(N2CCN(c3ccccc3)CC2)[nH]1
6. CC(C)NC(=O)C(=O)N/N=C/c1ccco1

1: 25.2; 2: 77.3; 3: 2.4; 4: 1.5; 5: -0.6; 6: -7

Dear colleague, could you please provide inhibition for the molecules listed below?
1. O=C(CCl)NNc1cccc(Cl)n1
2. CCOc1ccc(CN(Cc2ccco2)S(=O)(=O)c2ccc(-n3cnnn3)c(OC)c2)cc1
3. CCc1c(C)nc(N2CCN(Cc3ccccc3)CC2)[nH]c1=O
4. CCOCCn1c(C(C)C)nc2ccccc21
5. COc1ccc(OC)c(/C=N/NC(=O)CSc2nnc(C)n2-c2ccccc2)c1

1. 6.7
2. 57.7
3. 2.4
4. 15.5
5. 23.2

Dear colleague, could you please provide inhibition for the molecules listed below?
1. Cc1nnc(SCc2cc(=O)[nH]c(N3CCN(Cc4ccccc4)CC3)n2)s1
2. CCCOc1ccc(C2NC(=O)NC(c3ccccc3)=C2C(C)=O)cc1OCC (configuration not stated)
3. COc1ccccc1C1C2=C(COC2=O)Nc2cc3c(cc21)OCO3 (configuration not stated)
4. O=C(CCN1C(=O)COc2ccccc21)NCCCN1CCN(c2ccc(F)cc2)CC1
5. CCOc1ccc(C(=O)NC(C(=O)NCc2ccccn2)C(C)C)cc1 (configuration not stated)
6. COc1ccc(CN2CC(C(=O)NCCN3CCN(c4ccccc4F)CC3)CC2=O)cc1 (configuration not stated)

1: 50.4; 2: 11; 3: 91.7; 4: -10.1; 5: 26.7; 6: -6.5

The origin of these recorded values is PubChem BioAssay AID778.
